The values you see were collected from patent US20170071902A1.

- Test system: NFκB
- procedure text: NFκB inhibiting action: nitrous acid production in LPS-stimulated RAW 264.7 cells (Griess reagent)
- Format: cell-based
- test conditions: Mus musculus, RAW264.7, 24 h; read-out: NFκB inhibition IC50
pIC50: −log10 of the molar value.
recorded endpoint: pIC50

> print(dat)
                                   molecule  recorded.endpoint  result.number
1  COc1cc(O)c2c(=O)c(OC)c(-c3ccccc3)oc2c1 [KPEt-431, 5-hydroxy-3,7-Dimethoxyflavone]              pIC50           4.54
2  COc1cc(O)c2c(=O)c(OC)c(-c3ccc(OC)c(OC)c3)oc2c1 [KPEt-41, 5-hydroxy-3,7,3′,4′-Tetramethoxyflavone]              pIC50           4.26

(P) COc1ccc(-c2cc(=O)c3c(OC)cc(OC)cc3o2)cc1
(Q) COc1ccc(-c2cc(=O)c3c(O)cc(OC)cc3o2)cc1 [KPEt-422, 5-hydroxy-7,4′-Dimethoxyflavone]
Prompt line: Two entries are listed, P and Q . Which one carries the higher pIC50? # reply format: chosen label
Response line: P
